Assay: Solubility in PBS
Assay type: physicochemical
Parameter Solubility: see the listing below.
Use µM as the unit, but write only the number.

Example entries and their recorded answers appear below.
compound	experimentalValue
CC(=O)N1CCC[C@]12CC=CCCCC1(CCCC=CCCCOC(=O)N3CC[C@@](C(=O)N[C@@H](Cc4ccsc4)C(=O)N[C@@H](Cc4csc5ccccc45)C(=O)N[C@@H](CC(C)C)C(N)=O)(C3)NC(=O)[C@H](CC(N)=O)NC(=O)[C@H](Cc3ccccc3)NC(=O)[C@H](C)NC(=O)[C@H](C)NC(=O)[C@H](CN(CC(=O)O)CC(F)(F)F)NC(=O)[C@H](CC(=O)O)NC1=O)NC(=O)[C@H](CC(C)(C)C)NC(=O)[C@H](CC(=O)O)NC2=O (stereo partly drawn) [I-946]	47
CC(=O)N1CCC[C@]12CC=CCCCC1(CCCC=CCCCCCC[C@@](C)(C(=O)N[C@@H](Cc3ccccc3)C(=O)N[C@@H](Cc3c[nH]c4ccccc34)C(=O)N[C@@H](CCC(N)=O)C(N)=O)NC(=O)[C@H](C(C)C)NC(=O)[C@H](Cc3ccccc3)NC(=O)[C@H](C)NC(=O)[C@H](C)NC(=O)C(Cc3cccc4cc(F)ccc34)NC(=O)[C@H](CC(=O)O)NC1=O)NC(=O)[C@H](C)NC(=O)[C@H](CC(=O)O)NC2=O (stereo partly drawn) [I-256]	10

Turning now to a further record.
Solubility reported for this compound CC(=O)N1CCC[C@]12CC=CCCCC1(CCCC=CCCCOC(=O)N3CC[C@@](C(=O)N[C@@H](Cc4ccccc4C(F)(F)F)C(=O)N[C@@H](Cc4csc5ccccc45)C(=O)N[C@H](CO)[C@@H](C)O)(C3)NC(=O)[C@H](Cc3ccccc3)NC(=O)[C@H](Cc3ccccc3)NC(=O)[C@H](C)NC(=O)[C@H](C)NC(=O)[C@H](Cc3cccc(C(=O)O)c3)NC(=O)[C@H](CC(=O)O)NC1=O)NC(=O)[C@H](CC(C)(C)C)NC(=O)[C@H](CC(=O)O)NC2=O (stereo partly drawn) [I-1343] : 10

* * *

Target: beta-catenin/TCF4 engagement (Homo sapiens, UniProt P35222)
Construct: expressed in transfected cells; host or cells: HEK293
Sequence (P35222 whole entry): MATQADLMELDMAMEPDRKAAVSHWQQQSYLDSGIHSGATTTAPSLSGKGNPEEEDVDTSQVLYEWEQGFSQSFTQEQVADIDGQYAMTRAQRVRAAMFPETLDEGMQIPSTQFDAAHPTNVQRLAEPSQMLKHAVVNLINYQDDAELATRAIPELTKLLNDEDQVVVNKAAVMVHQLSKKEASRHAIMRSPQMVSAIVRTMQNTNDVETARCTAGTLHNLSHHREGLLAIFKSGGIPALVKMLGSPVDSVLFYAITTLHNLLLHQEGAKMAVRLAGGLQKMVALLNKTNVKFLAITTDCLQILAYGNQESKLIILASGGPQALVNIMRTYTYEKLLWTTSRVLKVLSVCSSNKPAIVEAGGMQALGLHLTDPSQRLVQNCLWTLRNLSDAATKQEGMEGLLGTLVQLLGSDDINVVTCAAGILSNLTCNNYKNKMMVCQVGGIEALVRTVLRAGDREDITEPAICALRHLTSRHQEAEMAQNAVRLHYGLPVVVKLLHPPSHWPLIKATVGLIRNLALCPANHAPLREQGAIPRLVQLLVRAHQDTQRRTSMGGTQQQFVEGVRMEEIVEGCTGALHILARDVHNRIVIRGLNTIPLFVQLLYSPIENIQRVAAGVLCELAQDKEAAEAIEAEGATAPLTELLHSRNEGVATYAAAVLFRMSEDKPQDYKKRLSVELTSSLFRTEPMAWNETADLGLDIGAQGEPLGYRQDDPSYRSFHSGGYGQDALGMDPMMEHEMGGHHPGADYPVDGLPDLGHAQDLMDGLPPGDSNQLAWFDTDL
Assay: Nano-BRET target engagement assay (B-cat-Halo & TCF4-Luc in HEK293 cells)
Type: cell-based
Conditions: absolute IC50; read-out: NanoBRET Abs IC50
valueKind: pIC50
pIC50 here: minus log base 10 of the concentration, concentration in moles per litre.

Example entries and their recorded answers appear below.
compound	pIC50
CC(=O)N1CCC[C@]12CC=CCCCC1(CCCC=CCCCOC(=O)N3CC[C@@](C(=O)N[C@@H](Cc4ccccc4C(F)(F)F)C(=O)N[C@@H](Cc4csc5ccccc45)C(=O)N[C@@H](CCC(=O)N(C)C)C(N)=O)(C3)NC(=O)[C@H](CCC(=O)N3CCOCC3)NC(=O)[C@H](Cc3ccccc3)NC(=O)[C@H](C)NC(=O)[C@H](C)NC(=O)[C@H](Cc3cccc(C(=O)O)c3)NC(=O)[C@H](CC(=O)O)NC1=O)NC(=O)[C@H](CC(C)(C)C)NC(=O)[C@H](CC(=O)O)NC2=O (stereo partly drawn) [I-2537]	5.54
COc1ccccc1C[C@H](NC(=O)[C@]1(C)CCCCCCC=CCCCC2(CCCC=CC[C@]3(CCCN3C(C)=O)C(=O)N[C@@H](CC(=O)O)C(=O)N[C@@H](C)C(=O)N2)C(=O)N[C@@H](CC(=O)O)C(=O)N[C@@H](CCC(=O)O)C(=O)N[C@@H](C)C(=O)N[C@@H](C)C(=O)N[C@@H](Cc2ccccc2)C(=O)N[C@@H](CC(N)=O)C(=O)N1)C(=O)N[C@@H](Cc1csc2ccccc12)C(=O)N[C@@H](CCC(N)=O)C(N)=O (stereo partly drawn)	4.76

Sample CC(=O)N1CCC[C@]12CC=CCCCC1(CCCC=CCCCOC(=O)N3CC[C@@](C(=O)N[C@@H](Cc4ccsc4)C(=O)N[C@@H](Cc4csc5ccccc45)C(=O)N[C@@H](CCC(N)=O)C(N)=O)(C3)NC(=O)[C@H](CC(C)C)NC(=O)[C@H](Cc3ccccc3)NC(=O)[C@H](C)NC(=O)[C@H](C)NC(=O)[C@H](CN(CC(=O)O)Cc3ccccc3)NC(=O)[C@H](CC(=O)O)NC1=O)NC(=O)[C@H](CC(C)(C)C)NC(=O)[C@H](CC(=O)O)NC2=O (stereo partly drawn) ; pIC50 observed: 5.30
